B1: Azoarcus group I ribozyme (parent)
chain: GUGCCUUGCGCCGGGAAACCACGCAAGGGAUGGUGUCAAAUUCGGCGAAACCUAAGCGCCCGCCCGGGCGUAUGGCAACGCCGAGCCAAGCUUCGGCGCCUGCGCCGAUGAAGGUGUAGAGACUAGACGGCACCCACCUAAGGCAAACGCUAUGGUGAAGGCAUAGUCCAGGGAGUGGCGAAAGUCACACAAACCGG

- Variants of: B1
- method: reverse-splicing fitness (ratio to wild type); higher = more active; in vitro selection; Mg2+ level not given
Below is a list of entries, each paired with its recorded reverse-splicing fitness value.

| mutation list | reverse-splicing fitness |
| --- | --- |
| A111C A120U A145U C169U | 0.0751 |
| C82G A111U A120U C169A U176C | 0.00299 |
| C82U A111C A120U A145G C150G C169G | 0.00651 |
| A120U C169G | 0.262 |
| C82G A111U A120C A145U C169U U176A | 0.0149 |
| C82U A111C A120C A145C C169A U176C | 0.00743 |
| C82A A111U A145C C150G U176A | 0.0104 |
| A111U A120C A145U C150U C169U U176G | 0.0049 |
| C82U A120U A145C C150U U176A | 0.0114 |
| C82G A111C A120U A145C C169U | 0.00341 |
| C82G A120G C150A U176A | 0.0119 |
| C82G A111G C150A C169A U176A | 0.0211 |
| A120G A145G C150U C169U U176C | 0.175 |
| C82U A111U A120C C150U C169G U176G | 0.00509 |
| A145U C150U C169U | 0.312 |
| A111G A120G C150G U176C | 0.0173 |
| C82A A120U A145U C150G U176A | 0.00533 |
| C82G A111U A120G C150U C169A U176G | 0.00614 |
| C82G A111U A145U C150U | 0.239 |
| C82A A111U A120U C150U C169A | 0.00594 |
| A111U A120C A145U U176C | 0.3 |
| C82A A111C A120G A145C C150A C169G U176C | 0.0145 |
| A120U A145C C150G C169G U176A | 0.00551 |
| C82A A111C A145G C150G C169U | 0.00803 |
| C82A A111U A145U C150U U176G | 0.0184 |
| C82G A111C A120G A145C C150U C169U | 0.00687 |
| C82G A111C C150G C169U U176G | 0.00599 |
| C82G A120G C150A C169U U176G | 0.00754 |
